Species on record: Rattus norvegicus
Experiment: Open TG-GATES - Regimen: Daily Repeat
Assay type: toxicity, organism-based, Sprague-Dawley
Set-up: regimen Daily Repeat, gender Male, age 6 weeks
Conditions: in vivo, po, 1000 mg/kg, 72 h, tissue Plasma, route gavage, dose level High, time 3 day
Kindly state A/G for each of the entries shown.
Reply: number alone, nothing else.

What the record says about Cc1nnc2n1-c1ccc(Cl)cc1C(c1ccccc1Cl)=NC2 : A/G is 0.9

Recorded A/G (compound CNC(=C[N+](=O)[O-])NCCSCc1ccc(CN(C)C)o1 ): 1.6

The reported value for CN/C(=N/CCSCc1nc[nH]c1C)NC#N in terms of A/G is 1.6

According to the records, this compound O=C(OC[C@H]1O[C@@H](OC(=O)c2cc(O)c(O)c(OC(=O)c3cc(O)c(O)c(O)c3)c2)[C@H](OC(=O)c2cc(O)c(O)c(OC(=O)c3cc(O)c(O)c(O)c3)c2)[C@@H](OC(=O)c2cc(O)c(O)c(OC(=O)c3cc(O)c(O)c(O)c3)c2)[C@@H]1OC(=O)c1cc(O)c(O)c(OC(=O)c2cc(O)c(O)c(O)c2)c1)c1cc(O)c(O)c(OC(=O)c2cc(O)c(O)c(O)c2)c1 displays A/G of 2

---

Species on record: Rattus norvegicus
Experiment: Open TG-GATES - Regimen: Single
Format: toxicity, organism-based, Sprague-Dawley
Set-up: regimen Single, gender Male, age 6 weeks
Conditions: in vivo, po, 0 mg/kg, 3 h, tissue Liver, route gavage, dose level Control
readout-name: LIVER (g)
Dear colleague, please return just the value in g, with no unit written.

The reported LIVER of the compound Brc1ccccc1 [BROMOBENZENE] was 8.1

Sure, the documented LIVER for Cc1nnc2n1-c1ccc(Cl)cc1C(c1ccccc1Cl)=NC2 [TRIAZOLAM] is 8.3

Measured LIVER of COC(=O)C1=C(C)NC(C)=C(C(=O)OC)C1c1ccccc1[N+](=O)[O-] [NIFEDIPINE] : 8.4

Quick note, LIVER for CCCc1cc(=O)[nH]c(=S)[nH]1 [PROPYLTHIOURACIL] landed at 8.7

The recorded LIVER for entry NC1=NC(=O)C(c2ccccc2)O1 (stereo not drawn) [PEMOLINE] equals 9.1

According to the records, this compound CC(C)NNC(=O)c1ccncc1 [IPRONIAZID] displays LIVER of 9.7

For reference, reported LIVER for CCOc1ccc(NC(C)=O)cc1 [PHENACETIN] stands at 9.1

response.value for Nc1c2c(nc3ccccc13)CCCC2 [TACRINE] (field: LIVER) = 9.3

---

Species: Rattus norvegicus
Test: Open TG-GATES - Regimen: Daily Repeat
Type: toxicity, organism-based, Sprague-Dawley
Design: regimen Daily Repeat, gender Male, age 6 weeks
Conditions: in vivo, po, 300 mg/kg, 72 h, tissue Plasma, route gavage, dose level Middle, time 3 day
readout-name: K (meq/L)
// return numeric value only (unit: meq/L, not printed)

The recorded K for entry O=C(OC[C@H]1O[C@@H](OC(=O)c2cc(O)c(O)c(OC(=O)c3cc(O)c(O)c(O)c3)c2)[C@H](OC(=O)c2cc(O)c(O)c(OC(=O)c3cc(O)c(O)c(O)c3)c2)[C@@H](OC(=O)c2cc(O)c(O)c(OC(=O)c3cc(O)c(O)c(O)c3)c2)[C@@H]1OC(=O)c1cc(O)c(O)c(OC(=O)c2cc(O)c(O)c(O)c2)c1)c1cc(O)c(O)c(OC(=O)c2cc(O)c(O)c(O)c2)c1 equals 4.6

Measured K of COC(=O)C1=C(C)NC(C)=C(C(=O)OC)C1c1ccccc1[N+](=O)[O-] : 4

The measured K associated with Cc1nnc2n1-c1ccc(Cl)cc1C(c1ccccc1Cl)=NC2 reads 3.9

Quick note, K for CNC(=C[N+](=O)[O-])NCCSCc1ccc(CN(C)C)o1 landed at 4.2

In plain terms, CN/C(=N/CCSCc1nc[nH]c1C)NC#N has a documented K of 4.1

Quick note, K for CCOc1ccc(NC(C)=O)cc1 landed at 4
